assay: in vitro; assay type: cell-based; details: human; Hela; representative of three independent replicates; read-out: EC50, mammalian cytotoxicity
Where a SMILES comes first, the peptide text is derived from it. Bridges are numbered along the chain shown (N, C = ends). [ ]: non-standard residue; d: D form. Bip = N[C@@H](Cc1ccc(-c2ccccc2)cc1)C(=O)O; NMeF = CN[C@@H](Cc1ccccc1)C(=O)O
The entries below are paired with their reported EC50.

[[record]]
molecule = "CCCCCC[C@H]1OC(=O)CNC(=O)[C@H]([C@H](C)O)NC(=O)[C@H](CO)NC(=O)[C@H]([C@H](C)CC)NC(=O)[C@H](CC(C)C)N(C)C(=O)[C@@H]1C [Globomycin]"
measured_value = "> 100 µM"


Q. Recorded EC50 for CN1C(=O)[C@H](Cc2ccc(-c3ccccc3)cc2)NC(=O)CNC(=O)[C@H](CCCNC(=N)N)NC(=O)[C@@H](Cc2ccccc2)NC(=O)CSC[C@@H](C(=O)NCC(N)=O)NC(=O)[C@H](CCCNC(=N)N)NC(=O)[C@H](CO)NC(=O)[C@H](Cc2ccc(-c3ccccc3)cc2)NC(=O)[C@@H]1Cc1ccccc1 [G9066] ({CH2CO}-[dF]RG[Bip][NMeF][Bip]SRCG-NH2; thioether N-9) , please?
A. > 100 µM

Q. Bench note: what EC50 did CN1C(=O)[C@H](Cc2ccc(-c3ccccc3)cc2)NC(=O)CNC(=O)[C@H](CC(=O)O)NC(=O)[C@@H](Cc2ccccc2)NC(=O)CSC[C@@H](C(=O)NCC(=O)N[C@@H](CCCCN)C(=O)N[C@@H](CCCCN)C(N)=O)NC(=O)[C@H](CCCNC(=N)N)NC(=O)[C@H](CO)NC(=O)[C@H](Cc2ccc(-c3ccccc3)cc2)NC(=O)[C@@H]1Cc1ccccc1 [G2824] ({CH2CO}-[dF]DG[Bip][NMeF][Bip]SRCGKK-NH2; thioether N-9) show?
A. > 100 µM

Q. Looking for the measured EC50 of CN[C@H](CC(C)C)C(=O)N[C@H]1C(=O)N[C@@H](CC(N)=O)C(=O)N[C@H]2C(=O)N[C@H]3C(=O)N[C@H](C(=O)N[C@H](C(=O)O)c4cc(O)cc(O)c4-c4cc3ccc4O)[C@H](O)c3ccc(c(Cl)c3)Oc3cc2cc(c3O[C@@H]2O[C@H](CO)[C@@H](O)[C@H](O)[C@H]2O[C@H]2C[C@](C)(N)[C@H](O)[C@H](C)O2)Oc2ccc(cc2Cl)[C@H]1O [Vancomycin] , can you help?
A. > 100 µM
